IC50 values for the compounds below.
- Tgt: mitochondrial pyruvate carrier (MPC) (Mus musculus, UniProt P63030+Q9D023)
- Construct: host or cells: 4T1 murine breast cancer cells, rPFO-permeabilized
- Sequence (P63030 whole entry): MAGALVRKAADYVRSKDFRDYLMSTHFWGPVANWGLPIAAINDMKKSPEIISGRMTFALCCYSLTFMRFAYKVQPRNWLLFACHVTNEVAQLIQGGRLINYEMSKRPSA
- Sequence (Q9D023 whole entry): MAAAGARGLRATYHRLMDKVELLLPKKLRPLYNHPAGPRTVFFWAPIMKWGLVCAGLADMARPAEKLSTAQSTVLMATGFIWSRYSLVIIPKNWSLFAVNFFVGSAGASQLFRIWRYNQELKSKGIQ
- Method Summary: Seahorse XFe96 Pyr-driven respiration in rPFO-permeabilized 4T1 cells
- Assay type: cell-based, murine
- Condition Info: read-out: IC50, inhibition of Pyr-driven respiration
The response must be a number in nM with no trailing unit.

Use these answered entries as a reference point.
The compound listed as CN(Cc1ccccc1)c1ccc2cc(C(=O)O)c(=O)oc2c1 has a reported IC50 of 18

The compound listed as CN(c1ccc(F)cc1)c1ccc2cc(C(=O)O)c(=O)oc2c1 has a reported IC50 of 147

Next:
The compound listed as CN(Cc1ccc(C(F)(F)F)cc1)c1ccc2cc(C(=O)O)c(=O)oc2c1.NC(CO)(CO)CO has a reported IC50 of 14.4

The compound listed as CN(Cc1ccc(F)cc1)c1ccc2cc(C(=O)O)c(=O)oc2c1 has a reported IC50 of 16

* * *

- Method Summary: in vivo
- Condition Info: female, BALB/c, mouse, in vivo, iv, 1 mg/kg
Quantity: half-life
Reply with a number, then the unit it belongs to.

The compound listed as CN(Cc1ccc(C(F)(F)F)cc1)c1ccc2cc(C(=O)O)c(=O)oc2c1.NC(CO)(CO)CO [C5] has a reported half-life of 3.15 h

* * *

- Method Summary: in vivo
- Condition Info: male, BALB/c, mouse, in vivo, po, 5 mg/kg
Quantity: half-life
Reply with a number, then the unit it belongs to.

The compound listed as CN(Cc1ccc(C(F)(F)F)cc1)c1ccc2cc(C(=O)O)c(=O)oc2c1.NC(CO)(CO)CO has a reported half-life of 4.04 h

* * *

- Method Summary: in vivo
- Condition Info: both, BALB/c, mouse, plasma, po, 5 mg/kg
Quantity: bioavailability

The molecule listed as CN(Cc1ccc(C(F)(F)F)cc1)c1ccc2cc(C(=O)O)c(=O)oc2c1.NC(CO)(CO)CO [C5] has a reported bioavailability of ~100%

* * *

- Method Summary: in vivo
- Condition Info: female, BALB/c, mouse, plasma, po, 5 mg/kg
Quantity: bioavailability (%)
The response must be a number in % with no trailing unit.

The compound listed as CN(Cc1ccc(C(F)(F)F)cc1)c1ccc2cc(C(=O)O)c(=O)oc2c1.NC(CO)(CO)CO has a reported bioavailability of 125

* * *

- Method Summary: in vivo
- Condition Info: male, BALB/c, mouse, plasma, iv, 1 mg/kg
Quantity: Vd (L/kg)
The response must be a number in L/kg with no trailing unit.

The compound listed as CN(Cc1ccc(C(F)(F)F)cc1)c1ccc2cc(C(=O)O)c(=O)oc2c1.NC(CO)(CO)CO has a reported Vd of 10.2

* * *

- Method Summary: in vivo
- Condition Info: male, BALB/c, mouse, plasma, po, 5 mg/kg
Quantity: bioavailability (%)
The response must be a number in % with no trailing unit.

The compound listed as CN(Cc1ccc(C(F)(F)F)cc1)c1ccc2cc(C(=O)O)c(=O)oc2c1.NC(CO)(CO)CO [C5] has a reported bioavailability of 124

* * *

- Test system: MDA-MB-231
- Method Summary: MTT cell proliferation inhibition assay, MDA-MB-231
- Type: cell-based
- Condition Info: Homo sapiens, 72 h, 3 days
Quantity: EC50

The compound listed as CN(Cc1ccc(C(F)(F)F)cc1)c1ccc2cc(C(=O)O)c(=O)oc2c1.NC(CO)(CO)CO has a reported EC50 of > 1000 µM

* * *

- Test system: 4T1
- Method Summary: MTT cell proliferation inhibition assay, 4T1
- Assay type: cell-based, murine
- Condition Info: Mus musculus, 72 h, 3 days, average ± SEM
Quantity: pEC50
In plain terms, pEC50 is the concentration in mol/L turned into minus its base-10 logarithm.

The compound listed as CN(Cc1ccc(C(F)(F)F)cc1)c1ccc2cc(C(=O)O)c(=O)oc2c1.NC(CO)(CO)CO has a reported pEC50 of 4.63

* * *

- Method Summary: General tolerability dose escalation, intraperitoneal, CD-1 mice
- Format: in vivo
- Condition Info: female, mouse, in vivo, ip, once daily 7 days, read-out: maximum tolerated dose
Quantity: MTD at 7 days (mg/kg)
The response must be a number in mg/kg with no trailing unit.

The compound listed as CN(Cc1ccc(C(F)(F)F)cc1)c1ccc2cc(C(=O)O)c(=O)oc2c1.NC(CO)(CO)CO has a reported MTD at 7 days of 5

* * *

- Method Summary: physchem
- Condition Info: water
Quantity: solubility (µg/mL)
The response must be a number in µg/mL with no trailing unit.

The compound listed as CN(Cc1ccc(C(F)(F)F)cc1)c1ccc2cc(C(=O)O)c(=O)oc2c1.NC(CO)(CO)CO has a reported solubility of 10000

* * *

- Method Summary: in vivo
- Condition Info: female, BALB/c, mouse, in vivo, po, 5 mg/kg
Quantity: half-life (h)
The response must be a number in h with no trailing unit.

The compound listed as CN(Cc1ccc(C(F)(F)F)cc1)c1ccc2cc(C(=O)O)c(=O)oc2c1.NC(CO)(CO)CO [C5] has a reported half-life of 4.41

* * *

- Method Summary: in vivo
- Condition Info: male, BALB/c, mouse, plasma, iv, 1 mg/kg
Quantity: clearance
Reply with a number, then the unit it belongs to.

The molecule listed as CN(Cc1ccc(C(F)(F)F)cc1)c1ccc2cc(C(=O)O)c(=O)oc2c1.NC(CO)(CO)CO [C5] has a reported clearance of 34.3 mL/min/kg

* * *

- Method Summary: Maximum tolerated dose study, oral dosing, 21 days
- Assay type: in vivo, severe combined immunodeficient mice
- Condition Info: female, BALB/c, mouse, in vivo; oral, daily for 21 days
Quantity: MTD at 21 days (mg/kg)
The response must be a number in mg/kg with no trailing unit.

The compound listed as CN(Cc1ccc(C(F)(F)F)cc1)c1ccc2cc(C(=O)O)c(=O)oc2c1.NC(CO)(CO)CO [C5] has a reported MTD at 21 days of 40
